src = PubChem BioAssay

Documented z-score across a set of compounds
test: PSAC antagonists in infected red cells, primary screen, cell-based, P. falciparum Indochina, OD700, 2 h (AID 1155);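 note: lysis reports solute entry through the parasite surface anion channel PSAC; channel blockers reduce lysis of infected cells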; conditions: P. falciparum Indochina infected erythrocytes, osmotic lysis OD700; higher = more signal, called active from +8 up or from −8 down
Answer with a number only.

Enquiry: Reported z-score for COc1cccc([C@H]2Oc3ccc(OC)cc3C(=NOC[C@@H](C)[C@H](OCc3ccccc3)C(C)C)[C@@H]2O)c1 : what is it?
Return: 0.947

Enquiry: Reported z-score for CO[C@H]1COC(=O)CC=C[C@@H](C)[C@H](NS(=O)(=O)c2ccc(C)cc2)COC(=O)CCC[C@@H]1C : what is it?
Return: -1.56

Enquiry: Reported z-score for CC(CCN1CCCCc2nc(C)c(C)cc21)=NO[C@@H](C)c1cn([C@H](CO)Cc2ccccc2)nn1 : what is it?
Return: 0.32

Enquiry: Reported z-score for Cc1cc2c(nc1C)CCCCN2CC(C)ON=C1[C@H]2CCn3c(=O)n(-c4ccccc4)c(=O)n3[C@H]2[C@H](O)[C@@H]2O[C@H]12 (some centres undefined) : what is it?
Return: 0.0165

* * *

experiment: binders of probe aFGF2 on microarray, primary screen, stem cell growth factor project, biochemical, small-molecule microarray, fluorescence 635/667 (AID 1067); settings: higher = more signal;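 note: measures binding of biotinylated aFGF2 protein to printed compounds on slides; z-score merges feature fluorescence and signal-to-noise across triplicate slides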
Lab note: compare composite z-score against -0.1. Equal or greater, write Met. Smaller, write Not met.

Enquiry: Tell me whether composite z-score is at least -0.1 here: CCOC(=O)[C@H](Cc1ccccc1)NC(=O)CCC1CC(OC(=O)NCCc2ccc(F)cc2)CC2(CCCC(COC(=O)NCCOC)O2)O1 (stereo not given in full)
Return: Met

Enquiry: Tell me whether composite z-score is at least -0.1 here: O=C1C2=CC[C@H]3C(=O)N(c4cccc(Oc5ccccc5)c4)C(=O)[C@H]3[C@H]2[C@H](O)[C@@H]2O[C@H]12
Return: Not met

Enquiry: Tell me whether composite z-score is at least -0.1 here: CO[C@@H]1COC(=O)CC=C[C@@H](C)[C@@H]2C=C[C@H](O)[C@@H](COC(=O)CC=C[C@H]1C)O2
Return: Not met

Enquiry: Tell me whether composite z-score is at least -0.1 here: CC(C)=CCCC(C)=CCON=C1C[C@@H](O)[C@@H](O)[C@@H]2[C@@H]3C(=O)N(C4CCCCC4)C(=O)[C@@H]3CC[C@@H]12
Return: Not met

Enquiry: Tell me whether composite z-score is at least -0.1 here: C=CC[C@@H]1C=C[C@H](ON=C(C)CCN2CCc3nc(-c4ccccc4)c(-c4ccccc4)cc3C2)[C@@H](CO)O1
Return: Not met

Enquiry: Tell me whether composite z-score is at least -0.1 here: Cc1ccc(S(=O)(=O)N[C@@H]2COC(=O)[C@@H](C)COC(=O)CC=C[C@H]2C)cc1
Return: Met

Further cases:
Enquiry: Tell me whether composite z-score is at least -0.1 here: CC=CC1=C(CO)C(=O)[C@@H]2O[C@@H]2C1=O
Return: Met

Enquiry: Tell me whether composite z-score is at least -0.1 here: COc1ccc(COC(=O)NN=C2C[C@@H](O)[C@@H](O)[C@@H]3[C@@H]4C(=O)N(Cc5ccccc5)C(=O)[C@@H]4CC[C@H]23)cc1
Return: Met

Enquiry: Tell me whether composite z-score is at least -0.1 here: CCOC(=O)NN=C1C[C@@H](O)[C@@H](O)[C@@H]2[C@@H]3C(=O)N([C@@H](C)c4ccccc4)C(=O)[C@@H]3CC[C@@H]12
Return: Met

Enquiry: Tell me whether composite z-score is at least -0.1 here: CCc1cc2c(nc1CC)CCN(CCC(C)=NOC[C@H]1O[C@H](c3ccccc3)C=C[C@@H]1Oc1ccc(OC)cc1)C2
Return: Not met

Enquiry: Tell me whether composite z-score is at least -0.1 here: CC(C)(C)N1C(=O)[C@H]2[C@H]3[C@H](O)[C@H](O)CC(=NOCc4ccccc4)[C@H]3CC[C@H]2C1=O
Return: Met

Enquiry: Tell me whether composite z-score is at least -0.1 here: CC(CCN1CCCCc2nc(C)c(C)cc21)=NO[C@H](C)c1cn([C@H](CO)Cc2ccccc2)nn1
Return: Met

Enquiry: Tell me whether composite z-score is at least -0.1 here: CO[C@@H]1COC(=O)[C@H](CCSC)NC(=O)CC=C[C@@H](C)COC(=O)CCC[C@H]1C
Return: Not met

Enquiry: Tell me whether composite z-score is at least -0.1 here: CC(CCC(=O)OC[C@H]1O[C@H](C#Cc2ccccc2)C=C[C@@H]1Oc1ccc(C)cc1)=NO[C@H](C)c1cn([C@H](CO)Cc2ccccc2)nn1
Return: Not met
